- System: UO-31 renal
- testDetails: NCI-60 one-dose screen, 48 h
- assayConditions: 10 µM unless noted
- Experimental: Growth inhibition of the UO-31 human tumor cell line is measured as a screen for anti-cancer activity. Cells are grown in 96 well plates and exposed to the test compound for 48 hours. Compounds are tested at a single concentration, which is 10^-5 M for most compounds. The reported endpoint is percent growth (GI% or GIPRCNT), where numbers from 0 - 100% represent growth inhibition, and numbers from -100% - 0 represent cell death. For example, a value of 40 represents 60% growth inhibition. […]
About 83,000 compounds went through this panel and 20% of them were active in at least one assay; those are over-represented in the sample as a whole. The source made the active and inactive calls. Rule for the calls: active = growth percent below 10; inactive = the rest.
Outcomes: T for active, F for inactive

| molecule | targetOfAssay | labelClass |
| --- | --- | --- |
| CCCCCCNC(=O)Oc1ccc(/C(=C(/CC)Cc2ccccc2)c2ccc(OCCCN(C)C)cc2)cc1 | UO-31 renal | F |
| C=CCOc1ccc(/C=C2\SC(=S)N(CCc3ccc(O)cc3)C2=O)cc1 | UO-31 renal | F |
| CCOC(=O)C1=C(C)N=C2SC=C(c3ccc(F)cc3)N2[C@H]1c1cn(-c2ccccc2)nc1-c1ccc(Cl)cc1 | UO-31 renal | F |
| CC(=O)c1c(C)nc(SCC(=O)Nc2ccc(Cl)cc2)n1-c1ccc(Cl)cc1 | UO-31 renal | F |
| N#Cc1cc(-c2ccnc(Nc3ccc(NC(=O)CCl)cc3)n2)ccc1N1CCCC1 | UO-31 renal | T |
| Cc1ccc2c(c1)C(C)Cc1c(ncnc1-n1cnc3cc(C)ccc31)N2C (configuration not stated) | UO-31 renal | F |
| Cc1oc2c(Cc3ccc(NC(=O)c4ccc(Cl)cc4)cc3)ncnc2c1C(=O)NO | UO-31 renal | F |
